SUBJECT_OF_TEST: POLRMT (Homo sapiens (Human), UniProt O00411)
Sequence (O00411 42-1230): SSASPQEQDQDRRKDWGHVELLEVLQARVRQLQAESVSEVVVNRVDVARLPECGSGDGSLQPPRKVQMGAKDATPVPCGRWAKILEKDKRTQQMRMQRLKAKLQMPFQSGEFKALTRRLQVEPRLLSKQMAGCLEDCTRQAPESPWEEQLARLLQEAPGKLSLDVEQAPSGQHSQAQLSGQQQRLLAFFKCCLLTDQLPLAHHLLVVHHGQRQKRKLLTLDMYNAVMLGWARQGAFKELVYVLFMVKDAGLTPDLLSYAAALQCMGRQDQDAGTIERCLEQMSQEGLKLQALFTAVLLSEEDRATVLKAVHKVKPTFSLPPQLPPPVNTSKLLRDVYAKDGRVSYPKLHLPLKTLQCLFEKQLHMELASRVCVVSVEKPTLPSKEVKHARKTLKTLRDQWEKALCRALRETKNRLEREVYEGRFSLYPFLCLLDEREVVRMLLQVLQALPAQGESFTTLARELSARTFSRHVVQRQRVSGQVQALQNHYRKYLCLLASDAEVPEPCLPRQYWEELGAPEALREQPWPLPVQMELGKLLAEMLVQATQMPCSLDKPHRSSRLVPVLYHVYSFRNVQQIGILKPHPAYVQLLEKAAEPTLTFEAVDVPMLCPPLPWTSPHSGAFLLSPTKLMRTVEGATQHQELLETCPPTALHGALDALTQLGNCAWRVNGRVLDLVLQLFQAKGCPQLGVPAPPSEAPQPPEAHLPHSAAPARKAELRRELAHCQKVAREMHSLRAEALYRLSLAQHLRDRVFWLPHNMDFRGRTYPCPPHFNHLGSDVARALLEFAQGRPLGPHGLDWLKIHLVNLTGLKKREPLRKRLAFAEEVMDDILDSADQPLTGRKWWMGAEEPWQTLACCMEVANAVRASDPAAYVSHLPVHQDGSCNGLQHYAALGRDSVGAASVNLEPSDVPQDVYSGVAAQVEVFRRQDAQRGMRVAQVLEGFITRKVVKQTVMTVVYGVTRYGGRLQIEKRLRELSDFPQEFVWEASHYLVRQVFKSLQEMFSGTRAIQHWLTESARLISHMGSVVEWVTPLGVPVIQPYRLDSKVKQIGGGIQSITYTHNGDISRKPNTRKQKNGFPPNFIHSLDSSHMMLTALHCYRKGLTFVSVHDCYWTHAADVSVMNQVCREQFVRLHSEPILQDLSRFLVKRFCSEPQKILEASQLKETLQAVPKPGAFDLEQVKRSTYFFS
ASSAY_EXPLANATION: homogeneous TR-FRET assay of mitochondrial transcription (inhibition of POLRMT)
Type: biochemical
SETTINGS: 7.5 nM POLRMT, 15 nM TFB2M, 30 nM TFAM, 60 minutes at 37° C.
Field: IC50. Provide a value for each of the compounds that follow.
Return type: number; implicit unit µM.

Task item: Need IC50 of Cc1ccccc1-c1ccnc2cc(CC(=O)NCC3CC3)ccc12 , thanks.
Reply: 91

Task item: Need IC50 of Cc1ccccc1-c1ccnc2cc(NC(C)C(=O)N3CCCCC3)ccc12 (stereo not drawn) [Example 45] , thanks.
Reply: 4

Task item: Need IC50 of Cc1ccccc1-c1ccnc2cc(NC(C)C(=O)N3CCOCC3)ccc12 (single isomer, unassigned) [Example 50] , thanks.
Reply: 2

Task item: Need IC50 of CNC(=O)c1ccc2c(-c3ccccc3C)ccnc2c1 , thanks.
Reply: 26

Task item: Need IC50 of COC(C)c1ccc2c(-c3ccccc3C)ccnc2c1 (stereo not drawn) , thanks.
Reply: 8

Task item: Need IC50 of Cc1ccccc1-c1ccnc2cc(C(=O)NCc3ccccc3)ccc12 , thanks.
Reply: 90
